- Target system: human Edg-1 (S1P1) (Homo sapiens)
- Construct: expressed in transfected cells; host or cells: HEK-293
- Assay method text: S1P1 binding assay: inhibition of [33P]-S1P binding to membrane fraction of HEK-293 cells transferred with the human Edg-1 (S1P1) gene
- Particulars: test compound 10 μM; inhibition of [33P]-S1P binding, membrane fraction
Listed next: entries and their corresponding inhibition at 10 µM.
Your answer should be a plain number; it is taken to be in %.

{"columns": ["Compound", "inhibition at 10 µM, %"],
 "data": [
  ["CCn1c(Oc2ccc(F)cc2)nnc1[C@@H](CF)NS(=O)(=O)c1ccc(Cl)c(Cl)c1 [Compound 689]", 92.7],
  ["CCn1c(Oc2cccc(N3CCN(C)CC3)c2)nnc1[C@@H](C)NS(=O)(=O)c1ccccc1Br [Compound 501]", 61.7]
]}

### Prompt Quote inhibition at 10 µM reported for CCn1c(Oc2cccc(N3CCN(C)CC3)c2)nnc1[C@@H](C)NS(=O)(=O)c1ccc(C)c(F)c1 [Compound 612] please.
### Response 114

### Prompt Please list inhibition at 10 µM recorded for the compound CCn1c(Oc2ccc3cc[nH]c3c2)nnc1[C@@H](C)NS(=O)(=O)c1ccc(Br)cc1C [Compound 407]
### Response 68.2

### Prompt Give reported inhibition at 10 µM value for CCn1c(Oc2cccc(N3CCN(C)CC3)c2)nnc1[C@@H](C)NS(=O)(=O)c1c(Cl)cc(C(F)(F)F)cc1Cl [Compound 579]
### Response 87.6

* * *

- Target system: human Edg-1 (S1P1) (Homo sapiens, UniProt P21453)
- Construct: expressed in transfected cells; host or cells: HEK-293
- Sequence (P21453 whole entry): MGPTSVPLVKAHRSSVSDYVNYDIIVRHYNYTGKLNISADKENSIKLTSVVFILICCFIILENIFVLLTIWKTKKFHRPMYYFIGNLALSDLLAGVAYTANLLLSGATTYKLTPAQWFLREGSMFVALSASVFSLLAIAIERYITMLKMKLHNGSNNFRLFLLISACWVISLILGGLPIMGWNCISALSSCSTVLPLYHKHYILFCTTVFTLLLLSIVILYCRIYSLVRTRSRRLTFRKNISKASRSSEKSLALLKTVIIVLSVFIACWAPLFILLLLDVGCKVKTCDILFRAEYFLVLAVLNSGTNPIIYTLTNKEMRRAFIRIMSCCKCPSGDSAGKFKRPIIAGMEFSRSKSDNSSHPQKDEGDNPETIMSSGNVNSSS
- Assay method text: S1P1 binding assay: inhibition of [33P]-S1P binding to membrane fraction of HEK-293 cells transferred with the human Edg-1 (S1P1) gene
- Particulars: test compound at 10 μM; inhibition of [33P]-S1P binding to the membrane fraction of HEK-293 cells expressing human Edg-1 (S1P1)
Quantity: inhibition at 10 µM (%)
Quick note: give the figure in %, leave out the unit.

Previously resolved entries follow.
{"columns": ["Structure smiles string", "Target system", "inhibition at 10 µM / %"],
 "data": [
  ["CCn1c(Oc2ccc(OC)c(OC)c2)nnc1[C@@H](C)NS(=O)(=O)c1ccc(Cl)c(Cl)c1", "human Edg-1 (S1P1) (Homo sapiens, UniProt P21453)", 101],
  ["Cc1ccc(Oc2nnc([C@@H](C)NS(=O)(=O)c3ccc(Cl)c(Cl)c3)n2C(C)C)cc1", "human Edg-1 (S1P1) (Homo sapiens, UniProt P21453)", 98.9],
  ["CCc1ccc(Oc2nnc([C@@H](C)NS(=O)(=O)c3ccc(Cl)c(Cl)c3)n2CC)cc1", "human Edg-1 (S1P1) (Homo sapiens, UniProt P21453)", 101],
  ["CCn1c(Oc2ccc3cc[nH]c3c2)nnc1[C@@H](C)NS(=O)(=O)c1cccc(Br)c1", "human Edg-1 (S1P1) (Homo sapiens, UniProt P21453)", 102]
]}

### Prompt Please give the documented inhibition at 10 µM of "CCn1c(Oc2ccc(F)cc2)nnc1[C@@H](C)NS(=O)(=O)c1ccc2c(c1)OCCO2"
### Response 106

### Prompt Indicate the recorded inhibition at 10 µM value for this molecule: "CCn1c(Oc2ccc3cc[nH]c3c2)nnc1[C@@H](C)NS(=O)(=O)c1ccc(Cl)cc1"
### Response 106

### Prompt Recall and state the measured inhibition at 10 µM for "CCn1c(Oc2ccc(F)cc2)nnc1C(C)(C)NS(=O)(=O)c1c(C)c(C)cc(C)c1C" .
### Response 80.2

### Prompt Consider the molecule "CCn1c(Oc2ccc(F)cc2)nnc1[C@@H](C)NS(=O)(=O)c1ccc(F)c(Cl)c1" . State its measured inhibition at 10 µM.
### Response 91.2

### Prompt State its inhibition at 10 µM for this molecule: "CCn1c(Oc2ccc(F)cc2)nnc1[C@@H](C)NS(=O)(=O)c1cc(Br)c(F)cc1F"
### Response 94.6

### Prompt Please supply the value of reported inhibition at 10 µM for the item "CCn1c(Oc2ccc(F)cc2)nnc1[C@@H](C)NS(=O)(=O)c1cccc(F)c1"
### Response 82.8

### Prompt Please indicate inhibition at 10 µM recorded for "CCn1c(Oc2ccc3cc[nH]c3c2)nnc1[C@@H](C)NS(=O)(=O)c1cccc(Cl)c1C"
### Response 88.1

### Prompt Input "CCn1c(Oc2ccc(F)cc2)nnc1[C@@H](C)NS(=O)(=O)c1cccc(Cl)c1Cl" , output reported inhibition at 10 µM.
### Response 91.4

### Prompt Report measured inhibition at 10 µM; entry is "CCn1c(Oc2ccc(F)cc2)nnc1[C@@H](C)NS(=O)(=O)c1ccc(Br)c(C(F)(F)F)c1"
### Response 78.9

### Prompt Let me know recorded inhibition at 10 µM for "CCn1c(Oc2ccc3cc[nH]c3c2)nnc1[C@@H](C)NS(=O)(=O)c1cc(Cl)ccc1Cl" , thanks.
### Response 92.8

### Prompt Specify reported inhibition at 10 µM for the molecule shown: "C[C@@H](NS(=O)(=O)c1ccc(Cl)c(Cl)c1)c1nnc(Oc2ccc(F)cc2)n1C1CC1"
### Response 97.4

### Prompt Output inhibition at 10 µM of "CCn1c(Oc2cccc(NS(C)(=O)=O)c2)nnc1[C@@H](C)NS(=O)(=O)c1ccc2c(Cl)cccc2c1"
### Response 102

### Prompt Quick one: give measured inhibition at 10 µM for "CCn1c(Oc2cccc(-n3ccnc3)c2)nnc1[C@@H](C)NS(=O)(=O)c1ccc(Cl)c(Cl)c1"
### Response 100

### Prompt Query inhibition at 10 µM for "CCn1c(Oc2ccc3cc[nH]c3c2)nnc1[C@@H](C)NS(=O)(=O)c1cc(C)c(Cl)cc1C"
### Response 100

### Prompt Look up and report measured inhibition at 10 µM for this entry: "CCn1c(Oc2ccc3sc(C)nc3c2)nnc1[C@@H](C)NS(=O)(=O)c1ccc(Cl)c(Cl)c1"
### Response 94.6

### Prompt // fetch inhibition at 10 µM given entry "CCn1c(Oc2ccc3cc[nH]c3c2)nnc1[C@@H](C)NS(=O)(=O)c1cc(Cl)cc(Cl)c1"
### Response 83.6

### Prompt # return recorded inhibition at 10 µM for input "CCn1c(Oc2ccc(F)cc2)nnc1[C@@H](C)NS(=O)(=O)c1ccc2c(Cl)cccc2c1"
### Response 102

### Prompt Give inhibition at 10 µM for the following molecule: "CCn1c(Oc2ccc3cc[nH]c3c2)nnc1[C@@H](C)NS(=O)(=O)CCc1cccc2ccccc12"
### Response 92.3

### Prompt Identify measured inhibition at 10 µM associated with "CCn1c(Oc2cccc(C(C)C)c2)nnc1[C@@H](C)NS(=O)(=O)c1ccc(Cl)c(Cl)c1"
### Response 106

### Prompt Look up inhibition at 10 µM of "CCn1c(Oc2ccc(F)cc2)nnc1[C@@H](C)NS(=O)(=O)c1cc(C)ccc1C" and report it.
### Response 90.1
